Biological target: T1, monkey CEA expressed on CHO cell surface (cynomolgus monkey)
T1 construct: also called cynoCEA-CHO; monkey CEA proteins on the cell surface
T1 chain: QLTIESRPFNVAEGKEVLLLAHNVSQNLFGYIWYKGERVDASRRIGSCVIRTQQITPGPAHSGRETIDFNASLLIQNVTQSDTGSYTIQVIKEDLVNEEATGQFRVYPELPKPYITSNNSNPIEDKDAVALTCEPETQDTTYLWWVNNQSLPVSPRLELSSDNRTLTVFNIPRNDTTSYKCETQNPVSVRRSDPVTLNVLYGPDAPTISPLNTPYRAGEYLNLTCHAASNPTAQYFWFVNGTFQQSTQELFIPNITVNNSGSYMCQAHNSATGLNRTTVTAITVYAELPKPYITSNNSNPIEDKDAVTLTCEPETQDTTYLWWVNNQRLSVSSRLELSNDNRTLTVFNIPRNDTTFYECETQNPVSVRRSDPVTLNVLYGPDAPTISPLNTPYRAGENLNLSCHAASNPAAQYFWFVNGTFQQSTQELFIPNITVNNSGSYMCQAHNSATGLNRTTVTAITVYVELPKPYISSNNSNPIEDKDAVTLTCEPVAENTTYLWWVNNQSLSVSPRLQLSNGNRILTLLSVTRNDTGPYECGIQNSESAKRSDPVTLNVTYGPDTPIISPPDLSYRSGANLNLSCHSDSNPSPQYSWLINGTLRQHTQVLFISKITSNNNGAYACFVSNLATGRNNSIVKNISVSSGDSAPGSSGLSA
Test: FACS, cynoCEA-CHO cells
observation_type: pEC50
The value called pEC50 is obtained by taking minus log10 of the concentration in mol/L.

Known results for binders:
Hu63-12 (antibody, human IgG1, kappa, V domains shown) VH: EVQLVQSGAEVKKPGASVKVSCKASGYTFTDFYMNWVRQAPGQGLEWIGDIFPKNGNTDYNRKFKDKATLTVDKSTSTVYMEFRSLRSEDTAVYYCARSGYGNYVFDYWGQGTLVTVSS VL: DVQMTQSPSSLSASVGDRVTITCRTSQDINIYLNWYQQKPGGAVKLLIYYRSGLLSGVPSRFSGSGSGTDYTLTISSLQPEDFATYYCQQGNTLPPTFGGGTKVEIKR; 8.65
Hu47-14 (antibody, human IgG1, kappa, V domains shown, Humanized IgG1/kappa; h47VH4 + h47VL2) VH: EVQLVQSGSELKKPGASVKVSCKASGYTFTTYGMSWVKQAPGQGLKWMGWINTYSGVPTYASDFKGRFVFSLDTSVSTAYLQISSLKAEDTAVYYCARRGNYGRWDFDVWGQGTTVTVSS VL: EIVLTQSPDFQSVTPKEKVTITCSVSSTISSSNLHWYQQKPDQSPKPLIYGTSNLASGVPSRFSGSGSGTDYTLTINSLEAEDAATYYCQQWSIYPLTFGQGTKLEIKR; 8.57
Hu103-7 (antibody, human IgG1, lambda, V domains shown) VH: EVQLVQSGSELKKPGASVKVSCKASGYTFTTYGVIWVRQAPGQGLEWMGWINTYSGVPTYADDFKGRFVFSLDTSVSTAYLQISSLKAEDTAVYYCARKKTLTTVTPWFAYWGQGTLVTVSS VL: ELVVTQSPSASASLGASVKLTCTLSSQHSTYTIEWYQQQPEKPPRYVMELKKDGSHSTGDGIPDRFSGSSSGADRYLTISSLQSEDEADYICGVGNTIKEQFVYVFGGGTKLTVLG; 8.79

IN: Value lookup for pEC50; key = Hu103-2 (antibody, human IgG1, lambda, V domains shown) VH: EVQLVQSGSELKKPGASVKVSCKASGYTFTTYGVIWVRQAPGQGLEWMGWINTYSGVPTYADDFKGRFVFSLDTSVSTAYLQISSLKAEDTAVYYCARKKTLTTVTPWFAYWGQGTLVTVSS VL: ELVLTQSPSASASLGASVKLTCTLSSQHSTYTIEWYQQQPEKGPRYLMELKKDGSHSTGDGIPDRFSGSSSGAERYLTISSLQSEDEADYYCGVGNTIKEQFVYVFGGGTKLTVLG
OUT: 8.90

IN: Same for Hu63-11 (antibody, human IgG1, kappa, V domains shown) VH: EVQLVQSGAEVKKPGASVKVSCKASGYTFTDFYMNWVRQAPGQGLEWIGDIFPKNGNTDYNRKFKDKATLTVDKSTSTVYMEFRSLRSEDTAVYYCARSGYGNYVFDYWGQGTLVTVSS VL: DVQMTQSPSSLSASVGDRVTITCRTSQDINIYLNWYQQKPGKAPKLLIYYRSGLLSGVPSRFSGSGSGTDYTLTISSLQPEDFATYYCQQGNTLPPTFGGGTKVEIKR
OUT: 8.64
